experiment_summary: yeast AGP1-GFP level changes, GLN3 branch – cell-based, multiplex flow cytometry, S. cerevisiae, primary screen (AID 1887);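 also: AGP1-GFP fusion strain of S. cerevisiae within a five-strain barcoded multiplex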
condition_set: 3 h, at 10 µM, stronger effect = higher value
Records with an inconclusive call do not appear.
Reported values of GFP response, % of DMSO for individual entries
quantity: GFP response, % of DMSO (%)

* CN1CCN(C2=Nc3ccccc3Oc3ccc(Cl)cc32)CC1 | 100
* COc1ccccc1/C=C/CN1CCN(Cc2ccc(F)cc2)C(CCO)C1 (stereo unspecified) | 98.5
* COc1ccc(C2C3=C(CC(C)(C)CC3=O)N(C)C3=C2C(=O)CC(C)(C)C3)cc1 | 118
* COC(=O)c1cc(COc2ccc3ccc(=O)oc3c2)c(C)o1 | 92.4
* c1ccc(CC2=NCCN2)cc1 | 102
* C[C@]12CCC(=O)C=C1CC[C@@H]1[C@@H]2[C@@H](O)C[C@@]2(C)[C@H]1CC[C@]2(O)C(=O)COC(=O)CCC(=O)O | 108
* Cc1nc(C2CC(=O)OC23CCCCC3)cs1 (stereo unspecified) | 94
* CC(=O)OCC[N+](C)(C)C | 105
* CCCCCC#CCC#CCC#CCC#CCCCC(=O)O | 116
* CCOc1ccc(C(=O)C(C)=O)c(OCC)c1 | 105
* CC(=O)Oc1c2occc2cc2ccc(=O)oc12 | 98.9
* Cc1ccc(C(=O)NCCNC(=O)c2ccccc2)cc1 | 103
* c1ccc2c(c1)CCOC2CNCCCN1CCCCC1 (stereo unspecified) | 113
* CC(=O)Nc1ccccc1C(=O)C(=O)Nc1ccccc1 | 97.5
* CC(=O)OC(CC(=O)O)C[N+](C)(C)C (stereo unspecified) | 97.6
* CC(N=C(NC#N)Nc1ccncc1)C(C)(C)C (stereo unspecified) | 100
* O=C(O)CCSCCC(=O)O | 102
* COc1ccc(/C=C/C(=O)c2cc3cccc(OC)c3oc2=O)cc1 | 95.7
* COc1ccc(C2NC(=O)c3ccccc3O2)c(OC)c1OC (stereo unspecified) | 104
* CC1(C)S[C@@H]2[C@H](NC(=O)Cc3ccccc3)C(=O)N2[C@H]1C(=O)O | 119
* CC1(C)C(=O)OC(/C=C\c2ccccc2)C(C)(C)C1=O (stereo unspecified) | 107

---

Reported values of GFP response vs DMSO for individual entries
experiment_summary: TOR pathway GLN3 branch reporter MEP2-GFP changes – S. cerevisiae, multiplex flow cytometry, primary screen (AID 1867);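 also: median GFP channel fluorescence of barcode-gated MEP2-GFP cells measured by flow cytometry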
condition_set: S. cerevisiae MEP2-GFP strain, 3 h, at 10 µM, stronger effect = higher value, 100% means same as DMSO wells
Records with an inconclusive call do not appear.
quantity: GFP response vs DMSO (%)

- CCCn1c(=O)c2[nH]c(C3CCCC3)nc2n(CCC)c1=O: 137
- O=C(/C=C/c1ccc2c(c1)OCO2)NCc1ccc(F)cc1: 106
- COCCOC(=O)C1=C(C)NC(C)=C(C(=O)OC(C)C)C1c1cccc([N+](=O)[O-])c1 (stereo not drawn): 105
- Cc1cc(C(=O)Nc2ccccc2C(=O)N2CCCCC2)ccc1[N+](=O)[O-]: 103
- COc1ccc(/C=C/C(=O)Nc2ccccc2C(=O)O)cc1OC: 110
- COc1ccc2[nH]c3c(=O)n(/N=C/[C@H]4C(C)C=C(C)CC4C)c(=O)[nH]c3c2c1 (stereo partly drawn): 109
- NC(CO)C(=O)NNCc1ccc(O)c(O)c1O (stereo not drawn): 98.7
- CC1(C)CC(=O)c2cn3c(nc2C1)nc1ccccc13: 97.7
